# system-under-test: T1, rat parathyroid hormone receptor (PTHR) (rat, UniProt P25961 27-591)
# T1 construct: Endogenous in ROS17/2.8 cells (membranes or intact cells); also called rat PTHR; rat PIR
# T1 sequence: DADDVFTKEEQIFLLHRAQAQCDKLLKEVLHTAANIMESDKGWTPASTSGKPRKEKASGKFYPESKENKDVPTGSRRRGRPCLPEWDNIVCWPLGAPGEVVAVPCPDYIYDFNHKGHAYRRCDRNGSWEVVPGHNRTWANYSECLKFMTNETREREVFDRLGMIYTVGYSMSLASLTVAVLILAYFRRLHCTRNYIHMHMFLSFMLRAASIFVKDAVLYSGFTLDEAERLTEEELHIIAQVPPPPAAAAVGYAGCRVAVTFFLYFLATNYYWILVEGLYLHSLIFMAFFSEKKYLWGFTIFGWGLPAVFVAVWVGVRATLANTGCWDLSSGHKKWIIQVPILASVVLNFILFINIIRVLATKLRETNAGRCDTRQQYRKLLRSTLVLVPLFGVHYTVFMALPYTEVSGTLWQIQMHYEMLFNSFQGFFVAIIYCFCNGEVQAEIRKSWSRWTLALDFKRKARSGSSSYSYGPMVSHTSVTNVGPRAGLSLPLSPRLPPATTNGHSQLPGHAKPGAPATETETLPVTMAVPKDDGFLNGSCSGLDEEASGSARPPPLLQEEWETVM
# method-notes: competition radioligand binding, rat PIR RG
Ends that are not written are not given here.
result-type: IC50 (nM)

binder	result-value
AVSEHQLLHDKGKSIQDERRRAFLLKLIAE-NH2 (also called EALK-PTHrP(1-30)) [E18,A22,L25,K26-PTHrP(1-30)NH]	0.21
AVSEHQLLHDKGKSIQDERRRAFLHHKIAEI-NH2 (Name as printed (K27)) [E18,A22,K27-PTHrP(1-31)NH]	0.23
AVSEHQLLHDKGKSIQDARRRAFLLKLI-NH2 (not fully specified, also called [Ala^18,22,Leu^25,Lys^26]-PTHrP(1-28); AALK-PTHrP(1-28)) [A18,22,L25,K26-PTHrP(1-28)NH]	0.16
